Origin of values: patent US20140056903A1

measured_target: T1, human GFRα3 expressed with a C-terminal myc-myc-hexahistidine tag (human, UniProt O60609 32-374, biotinylated (sites not given) in ELISA format 2 and in the Octet cross-competition; not in SPR)
T1 construct: also called hGFRα3-mmh; hGFRα3-mmH
T1 sequence (O60609 other isoform, or with tags, fused parts or gaps limits assumed): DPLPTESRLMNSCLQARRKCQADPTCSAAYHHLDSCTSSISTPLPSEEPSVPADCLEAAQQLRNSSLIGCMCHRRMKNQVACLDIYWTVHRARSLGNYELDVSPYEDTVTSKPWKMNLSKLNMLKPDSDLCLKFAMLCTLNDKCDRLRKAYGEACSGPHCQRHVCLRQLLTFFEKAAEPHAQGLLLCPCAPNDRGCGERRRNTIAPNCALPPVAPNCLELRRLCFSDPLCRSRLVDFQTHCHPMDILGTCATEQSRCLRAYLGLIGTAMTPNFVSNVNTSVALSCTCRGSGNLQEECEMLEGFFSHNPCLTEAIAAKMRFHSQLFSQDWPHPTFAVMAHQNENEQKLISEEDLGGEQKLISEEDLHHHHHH
experimental_details: blocking ELISA 2, biotin-hGFRα3-mmH to coated hARTEMIN-mmH + hRET-10His
measured_parameter: pIC50
pIC50 here: minus log base 10 of the concentration, concentration in moles per litre.

H4H2344S (antibody, human IgG4, V domains shown, human IgG4 Fc (H4H)) VH: EVQLVESGGGVVQPGRSLRLSCAASGFSFSDYVMHWVRQAPGKGLEWVASIWFDGSNEFYADSVKGRFTISRDNSKNTLFLQMNSLRAEDTAVYYCAKKGVLVATSAFDIWGQGTMVTVSS VL: DIQMTQSPSSLSASVGDRVTITCRASQSINNYLNWYHQKPGKAPKLLIYAASSLQSGVPSRFSGSGSGTDYTLTISSLQPEDFGNYYCQQSYRTSMYTFGQGTKVEIK    9.34
H4H2292S (antibody, human IgG4, V domains shown, human IgG4 Fc (H4H)) VH: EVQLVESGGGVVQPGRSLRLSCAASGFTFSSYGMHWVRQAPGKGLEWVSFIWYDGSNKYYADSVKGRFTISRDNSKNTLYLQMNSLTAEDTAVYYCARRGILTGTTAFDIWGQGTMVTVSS VL: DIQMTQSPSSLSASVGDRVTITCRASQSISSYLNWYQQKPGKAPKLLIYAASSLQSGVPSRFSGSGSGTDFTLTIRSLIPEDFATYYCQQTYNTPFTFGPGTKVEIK    8.75

API: the following record is the query input.
**Q:** Entry under review: H4H2293P (antibody, human IgG4, V domains shown, human IgG4 Fc (H4H)) VH: QVQLVESGGGVVQPGRSLRLSCAASGFSFSDYVMHWVRQAPGKGLEWVASIWFDGSNELYADSVKGRFTISRDNSKNTLFLQMNSLRAEDTAVYYCAKKGVLVATSAFHIWGQGTMVTVSS VL: AIQMTQSPSSLSASVGDRVTITCRASQNINNYLNWYHQKPGKAPNLLIYAASSLQSGVPSRFSGSGSGTDYTLTISSLQPEDFGNYYCQQSYSTSMYTFGQGTKLEIK . Reported pIC50?
**A:** 8.13
